test system: human lung large cell carcinoma, MDR negative (NCI-H460) cells; test: 48-hour cellular proliferation assay (sulforhodamine staining), NCI-H460 cells; type: cell-based; conditions: Homo sapiens, 10^−4 M compound, read-out: NCI-460 % inhibition at 10^−4 M
measurement.name: inhibition at 100 µM (%)
State the answer as a number, implicitly in %.

// query inhibition at 100 µM value for entry COc1ccc(S(=O)(=O)Oc2cc(OC)c(OC)c(OC)c2)cc1N
100

# repeat for COc1cc(NS(=O)(=O)c2ccc([N+](=O)[O-])cc2)cc(OC)c1OC
99.9

# repeat for COc1ccc(CS(=O)(=O)c2cc(OC)c(OC)c(OC)c2)cc1
99.6
